# system name: PI3K-α (PIK3CA) wild-type (WT), p110α/p85α complex (Homo sapiens, UniProt P42336)
# Construct: Recombinant, catalytically active human full length PIK3KA Wild-type and H1047R mutant; 6×His (N); purchased EMD Millipore Sigma 14-602M
# test: PI3K-alpha kinase (PIK3CA) biochemical activity, ADP-Glo, wild-type
# condition info: Soy PI lipid substrate
# Source text: PI3K-Alpha Kinase (PIK3CA) Activity, Wild-Type and H1047R Mutant and Determining IC50 Values for Inhibitors Recombinant, catalytically active human full length PIK3KA Wild-type and H1047R mutant were purchased as 1:1 complex of N-terminal 6×his tagged p110α (catalytic) and untagged p85α (regulatory subunit) from EMD Millipore Sigma (cat. no. 14-602M and 14-792M, respectively). […]
pIC50: −log10 of the molar value.
pIC50 values for the compounds below.

# compound, recorded result
data = [
    ("Cc1cc([C@@H](C)Nc2ccc(Cl)nc2C(=O)O)c2oc(-c3ccc4nc(C)sc4n3)c(C)c(=O)c2c1", "6.00 to 6.30"),
    ("Cc1cc([C@@H](C)Nc2ccc(C)nc2C(=O)O)c2oc(-c3ccc4nn(C)cc4c3)c(C)c(=O)c2c1", "6.00 to 6.30"),
    ("Cc1cc(C(C)Nc2ccccc2C(=O)O)c2oc(-c3ccc4nc(C)cn4c3)c(C#N)c(=O)c2c1 (single isomer, unassigned)", "5.30 to 6.00"),
    ("Cc1cc(C(C)Nc2ccccc2C(=O)O)c2oc(-c3cc(C)c4nn(C)cc4c3)cc(=O)c2c1 (single isomer, unassigned) [Example 126]", "5.30 to 6.00"),
    ("Cc1cc(C(C)Nc2ccccc2C(=O)O)c2oc(-c3ccc4nn(C)cc4c3)c(C(F)(F)F)c(=O)c2c1 (single isomer, unassigned)", "> 6.30"),
    ("Cc1cc(C(C)Nc2ccc(Cl)nc2C(=O)O)c2oc(-c3ccc4cnn(C)c4c3)cc(=O)c2c1 (single isomer, unassigned) [Example 219]", "5.30 to 6.00"),
    ("Cc1cc(C(C)Nc2ccccc2C(=O)O)c2oc(-c3cnn4cccnc34)cc(=O)c2c1 (single isomer, unassigned) [Example 33]", "< 5.00"),
    ("Cc1cc(C(C)Nc2ccccc2C(=O)O)c2oc(-c3cnc4cn(C)nc4c3)cc(=O)c2c1 (single isomer, unassigned) [Example 44]", "5.00 to 5.30"),
]

Assign pIC50 to the following record: Cc1cc(C(C)Nc2ccccc2C(=O)O)c2oc(-c3ccc4oc(C)nc4c3)cc(=O)c2c1 (single isomer, unassigned)
5.30 to 6.00

Assign pIC50 to the following record: Cc1cc(C(C)Nc2ccccc2C(=O)O)c2oc(-c3ccc4nc(C)sc4c3)cc(=O)c2c1 (single isomer, unassigned)
6.00 to 6.30

Assign pIC50 to the following record: Cc1cc(C(C)Nc2ccccc2C(=O)O)c2oc(-c3cccc4c3OCO4)cc(=O)c2c1 (single isomer, unassigned)
> 6.30

Assign pIC50 to the following record: Cc1nc2ccc(-c3cc(=O)c4cc(C(F)(F)F)cc(C(C)Nc5ccc(Cl)nc5C(=O)O)c4o3)cc2s1 (single isomer, unassigned)
5.30 to 6.00

====

# system name: PI3K-α (PIK3CA) H1047R mutant, p110α/p85α complex (Homo sapiens, UniProt P42336, H1047R)
# Construct: Recombinant, catalytically active human full length PIK3KA Wild-type and H1047R mutant; 6×His (N); purchased EMD Millipore Sigma 14-792M
# Sequence (P42336 whole entry H1047R): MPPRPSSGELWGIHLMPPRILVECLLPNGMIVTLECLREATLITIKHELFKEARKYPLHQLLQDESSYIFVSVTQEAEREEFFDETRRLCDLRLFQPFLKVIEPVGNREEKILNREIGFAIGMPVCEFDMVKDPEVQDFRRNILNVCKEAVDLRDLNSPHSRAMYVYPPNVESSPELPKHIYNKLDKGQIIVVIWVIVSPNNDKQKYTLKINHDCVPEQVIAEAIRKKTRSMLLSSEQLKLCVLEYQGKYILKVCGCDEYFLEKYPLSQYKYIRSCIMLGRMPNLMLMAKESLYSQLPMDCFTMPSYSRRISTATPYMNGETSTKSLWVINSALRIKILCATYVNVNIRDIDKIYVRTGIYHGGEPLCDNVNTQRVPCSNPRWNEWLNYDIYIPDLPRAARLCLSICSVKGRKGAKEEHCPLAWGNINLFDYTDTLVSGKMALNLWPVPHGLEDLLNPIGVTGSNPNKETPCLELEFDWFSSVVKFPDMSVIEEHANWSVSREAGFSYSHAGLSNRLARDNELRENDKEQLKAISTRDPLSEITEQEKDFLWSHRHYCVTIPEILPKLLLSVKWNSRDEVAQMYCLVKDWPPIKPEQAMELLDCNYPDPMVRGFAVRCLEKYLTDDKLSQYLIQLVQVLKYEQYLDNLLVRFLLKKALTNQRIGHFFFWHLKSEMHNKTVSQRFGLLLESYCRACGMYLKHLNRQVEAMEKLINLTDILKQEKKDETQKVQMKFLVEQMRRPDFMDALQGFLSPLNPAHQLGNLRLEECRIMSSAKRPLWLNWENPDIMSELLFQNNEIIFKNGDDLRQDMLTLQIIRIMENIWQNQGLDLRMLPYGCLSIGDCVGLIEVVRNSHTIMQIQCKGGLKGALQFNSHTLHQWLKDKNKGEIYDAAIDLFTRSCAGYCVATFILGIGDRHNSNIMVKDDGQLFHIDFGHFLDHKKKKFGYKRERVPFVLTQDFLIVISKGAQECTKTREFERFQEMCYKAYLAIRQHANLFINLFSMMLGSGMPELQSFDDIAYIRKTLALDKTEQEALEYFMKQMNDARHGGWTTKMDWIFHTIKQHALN
# Sequence (P27986 whole entry partner): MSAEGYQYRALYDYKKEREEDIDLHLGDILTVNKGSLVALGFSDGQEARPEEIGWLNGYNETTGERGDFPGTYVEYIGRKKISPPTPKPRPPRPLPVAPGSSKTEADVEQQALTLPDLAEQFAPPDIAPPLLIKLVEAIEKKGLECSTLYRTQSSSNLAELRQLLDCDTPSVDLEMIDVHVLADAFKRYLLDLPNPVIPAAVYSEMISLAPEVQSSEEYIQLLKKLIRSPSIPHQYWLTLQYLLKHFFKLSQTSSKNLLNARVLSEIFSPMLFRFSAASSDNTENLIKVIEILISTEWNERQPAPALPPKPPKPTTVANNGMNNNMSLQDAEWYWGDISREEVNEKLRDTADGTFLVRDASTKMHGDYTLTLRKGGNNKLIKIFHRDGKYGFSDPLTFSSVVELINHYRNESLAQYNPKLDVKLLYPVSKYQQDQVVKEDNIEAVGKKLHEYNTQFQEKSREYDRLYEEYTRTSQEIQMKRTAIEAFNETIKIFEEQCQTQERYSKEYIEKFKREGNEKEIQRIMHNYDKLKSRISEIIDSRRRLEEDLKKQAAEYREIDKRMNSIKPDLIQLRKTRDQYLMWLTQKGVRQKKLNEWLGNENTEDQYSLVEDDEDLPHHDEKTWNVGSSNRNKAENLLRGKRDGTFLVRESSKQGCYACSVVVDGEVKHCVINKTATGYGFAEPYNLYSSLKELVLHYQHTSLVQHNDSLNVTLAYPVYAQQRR
# test: PI3K-alpha kinase (PIK3CA) biochemical activity, ADP-Glo, H1047R mutant
# condition info: Soy PI lipid substrate
pIC50: −log10 of the molar value.
endpoint label: pIC50

Solved entries:
# compound, system name, recorded result
measured = [
    ("Cc1cc(C(C)Nc2ccc(Cl)nc2C(=O)O)c2oc(-c3ccc4nn(C)cc4c3)c(C)c(=O)c2c1 (single isomer, unassigned)", "PI3K-α (PIK3CA) H1047R mutant, p110α/p85α complex (Homo sapiens, UniProt P42336, H1047R)", "> 6.30"),
    ("Cc1cc(C(C)Nc2ccccc2C(=O)O)c2oc(-c3ccc4c(cnn4C)c3)cc(=O)c2c1 (single isomer, unassigned)", "PI3K-α (PIK3CA) H1047R mutant, p110α/p85α complex (Homo sapiens, UniProt P42336, H1047R)", "> 6.30"),
    ("Cc1cc(C(C)Nc2cccc(F)c2C(=O)O)c2oc(-c3cc(C)c4nn(C)cc4c3)cc(=O)c2c1 (single isomer, unassigned)", "PI3K-α (PIK3CA) H1047R mutant, p110α/p85α complex (Homo sapiens, UniProt P42336, H1047R)", "> 6.30"),
    ("Cc1c(-c2ccc3nn(C)cc3c2)oc2c(C(C)Nc3ccccc3C(=O)O)cc(F)cc2c1=O (single isomer, unassigned) [Example 148]", "PI3K-α (PIK3CA) H1047R mutant, p110α/p85α complex (Homo sapiens, UniProt P42336, H1047R)", "> 6.30"),
    ("Cc1cc(C(C)Nc2ccc(Cl)c(F)c2C(=O)O)c2oc(-c3c(C)nc4ccccn34)cc(=O)c2c1 (single isomer, unassigned)", "PI3K-α (PIK3CA) H1047R mutant, p110α/p85α complex (Homo sapiens, UniProt P42336, H1047R)", "> 6.30"),
]

Proceed to the following item.
Assign pIC50 to the following record: Cc1cc(C(C)Nc2ccccc2C(=O)O)c2oc(-c3ccc4cncnc4c3)cc(=O)c2c1 (single isomer, unassigned)
< 5.00
